A collection of compounds and their measured Potency
Molecular target: Thymidylate synthase (Mus musculus) (UniProt P07607)
Sequence (P07607 whole entry, looked up): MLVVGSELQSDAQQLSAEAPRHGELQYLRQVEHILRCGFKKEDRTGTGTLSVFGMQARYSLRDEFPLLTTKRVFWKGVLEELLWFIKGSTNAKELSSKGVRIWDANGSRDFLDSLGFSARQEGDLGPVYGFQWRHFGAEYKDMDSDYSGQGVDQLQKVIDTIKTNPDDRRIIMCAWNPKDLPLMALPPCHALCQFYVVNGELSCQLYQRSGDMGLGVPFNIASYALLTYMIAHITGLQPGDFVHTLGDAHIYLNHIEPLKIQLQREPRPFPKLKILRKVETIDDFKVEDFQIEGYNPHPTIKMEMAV
property: Potency

INSERT INTO results (compound, qualifier_operator, reported_result) VALUES
  ('C#CCN(Cc1ccc2nc(N)nc(O)c2c1)c1ccc(CCCC(=O)O)cc1', '=', 333),
  ('C#CCN(Cc1ccc2nc(N)nc(O)c2c1)c1ccc(C(=O)NC(CCC(=O)OCC)C(=O)OCC)cc1 (stereo unspecified)', '>', 62),
  ('C#CCN(Cc1ccc2nc(N)nc(O)c2c1)c1ccc(C(=O)NC(C)C(=O)O)cc1 (stereo unspecified)', '=', 5.2),
  ('C#CCN(Cc1ccc2nc(N)nc(O)c2c1)c1ccc(C(=O)NC(CC(=O)O)C(=O)O)cc1 (stereo unspecified)', '=', 8.9),
  ('C#CCN(Cc1ccc2nc(N)nc(O)c2c1)c1ccc(C(=O)O)cc1', '=', 84),
  ('C#CCN(Cc1ccc2nc(N)nc(O)c2c1)c1ccc(C(=O)NCC(=O)O)cc1', '=', 20.7);
